target_under_test: T1, µ-type opioid receptor (MOR), rat, wild type, fluorescently tagged, expressed in the PM of CHO-K1 cells … (rat, UniProt P33535 1-398)
T1 construct: whole, on cells; also called WT-MOR; MOR-Halo; not shown: Halo tag
method: dependence of the DOR-MOR colocalisation index on the concentration of the soluble peptide (competition on cells)
pKd: −log10 of the molar value.
measured_property: pKd

Report pKd for SDTFPSAFPSASANASGSPGARS (also called DpepDM(20-42); DpepDM) [Dpep(20-42)DM, soluble peptide with the N-terminal domain sequence aa20-42 of DOR] please.
> 7.00
